System: receptor labeled by the radioiodinated analogue of 1 (4, [125I]-YLFQPQRF-NH2); neuropeptide FF receptor
Assay: Competitive radioligand binding against 4 ([125I]Y8F-amide)
Conditions: mixture-based positional scanning; difference from averaged radioligand displacement of whole library (0); about 80 a.u. = 10-fold change in Ki
Peptide text beside a SMILES is read from it. * marks the point of attachment. Dansyl = CN(C)c1cccc2c(S(=O)(=O)*)cccc12
Property Name: Relative Binding Index (RBI) (a.u.)
Unit a.u. implied. Number only.

[
  {
    "Compound": "C[C@H](NS(=O)(=O)c1cccc2c(N(C)C)cccc12)C(=O)N[C@@H](Cc1ccccc1)C(=O)N[C@@H](CCCNC(=N)N)C(N)=O [Dansyl-AFR-amide] (Dansyl-Ala-Phe-Arg-NH2)",
    "Relative Binding Index (RBI), a.u.": 11
  },
  {
    "Compound": "CN(C)c1cccc2c(S(=O)(=O)N[C@@H](Cc3ccccc3)C(=O)N[C@@H](CCCNC(=N)N)C(=O)N[C@@H](CCCNC(=N)N)C(N)=O)cccc12 [Dansyl-FRR-amide] (Dansyl-Phe-Arg-Arg-NH2)",
    "Relative Binding Index (RBI), a.u.": 8
  }
]

input: Give its Relative Binding Index (RBI) value. Item: CC[C@H](C)[C@H](NC(=O)CNS(=O)(=O)c1cccc2c(N(C)C)cccc12)C(=O)N[C@@H](CCCNC(=N)N)C(N)=O [Dansyl-GIR-amide] (Dansyl-Gly-Ile-Arg-NH2)
output: 32

The origin of these recorded values is patent US6960574B2.
